test system: Wolbachia pipientis; experiment: Anti-Wolbachia Cell-Based Screen; format: functional; parameters: scale not given: in the data most compounds retested in dose-response had high values; details: 5 µM
Among all 48,000 compounds or so, about 13,000 (27%) showed an effect of 50% or more. The list shows a part of the results.
Listing of recorded Percent Effect by entry.

compound | testedOn | Percent Effect / %
Cc1ccccc1OCC(O)C(=O)N1CCC2(CC1)CN(C)C(=O)O2 (stereo not given) | Wolbachia pipientis | -0.4396
CC1(C)CN=C(N2CCN(CC3CCOC3)CC2)S1 (stereo not given) | Wolbachia pipientis | 102.4
CC(Cc1ccco1)NS(=O)(=O)N1CCCCCC1 (stereo not given) | Wolbachia pipientis | -8.82
N#Cc1c(N2CCN(CC3CCOC3)CC2)nc2ccccn12 (stereo not given) | Wolbachia pipientis | -4.336
Cc1nc(C)c2c(n1)CCN(Cc1nccn1C)CC2.O=C(O)C(F)(F)F | Wolbachia pipientis | 102.7
Cc1cc(C)nc(N2CCN(Cc3nccn3C)CC2)n1.O=CO | Wolbachia pipientis | 104.1
CCOCCn1c(=O)[nH]c2cc(C(=O)N(C)Cc3cnn(C)c3)ccc21 | Wolbachia pipientis | 6.487
CN(Cc1ccc(F)cc1)C(=O)CN1CCOC(Cn2cncn2)C1 (stereo not given) | Wolbachia pipientis | -5.304
Cc1ccccc1OCC1CCCN(C(=O)CNC(=O)N(C)C)C1 (stereo not given) | Wolbachia pipientis | 1.963
Cc1noc(C)c1CN1CC2(CCN(C(=O)c3cc[nH]n3)C2)CC1=O (stereo not given) | Wolbachia pipientis | -2.196
Cc1ccc2oc(C(=O)N3CCc4nnc(N(C)C)cc4C3)cc2n1 | Wolbachia pipientis | -8.128
Cc1nc(C2CCN(C(=O)c3ccc(=O)n(C)c3)CC2)c2sccn12 | Wolbachia pipientis | -4.246
CCOc1cc(C)nc(N2CCN(C(=O)c3ccnn3C)CC2)n1 | Wolbachia pipientis | 4.776
Cc1nc(NC(C)C)nc2c1CN(Cc1nccn1C)CC2 | Wolbachia pipientis | 3.247
CN(CCc1cnn(C)c1)C(=O)CN1C(=O)OC[C@@H]1c1ccccc1 | Wolbachia pipientis | -15.8
CC(C)c1nc2c(n1C)CCN(CCS(=O)(=O)c1ccccc1)C2 | Wolbachia pipientis | 16.54
Cc1noc(C)c1-c1cnc(CC2CCN(C(=O)c3cc[nH]n3)C2)cn1 (stereo not given) | Wolbachia pipientis | -12.99
Cc1nc(N2CCOCC2)nc2c1CCN(Cc1ccsc1)CC2.O=C(O)C(F)(F)F | Wolbachia pipientis | -7.325
Cc1c(C(=O)N2CCC(c3nc(C)n4ccsc34)CC2)cnn1C | Wolbachia pipientis | 112.4
Cc1csc(C2CCCN(C(=O)c3cnn4ccc(C)nc34)C2)n1 (stereo not given) | Wolbachia pipientis | -3.808
Cc1nc(N2CCOCC2)nc2c1CCN(Cc1nccn1C)CC2.O=C(O)C(F)(F)F | Wolbachia pipientis | 110.5
CN(C)S(=O)(=O)c1cccc(CNc2cc(CO)ccc2Cl)c1 | Wolbachia pipientis | -35.79
CNc1cc2c(nn1)CCN(C(=O)c1cc(C)no1)C2 | Wolbachia pipientis | 125.3
CCCc1cc(NCCCC2CCOC2)n2nccc2n1 (stereo not given) | Wolbachia pipientis | -21.79
C1CC(CN2C[C@H]3CC[C@@H]2CN(Cc2nnc(C4CC4)o2)C3)C1 | Wolbachia pipientis | 1.497
CNc1cc2c(nn1)CCN(C(=O)c1coc(Br)c1)C2 | Wolbachia pipientis | 117.2
NS(=O)(=O)c1cnn(-c2ccc(NC(=O)CC3CCCC3)cn2)c1 | Wolbachia pipientis | 31.03
COc1cc(C)nc(N2CCN(Cc3nccn3C)CC2)n1 | Wolbachia pipientis | 16.21
CC(C)Nc1nc2c(c(NC3CC3)n1)CCN(Cc1nccn1C)CC2.O=C(O)C(F)(F)F | Wolbachia pipientis | 5.459
Cc1ccc(CNC(=O)NCC(=O)N2CCCC2)c(N2CCCC2)c1 | Wolbachia pipientis | -13.16
Cc1cc(C(F)(F)F)nc(N2CCN(Cc3nccn3C)CC2)n1 | Wolbachia pipientis | -22.48
CN(Cc1ccc(F)cc1)C(=O)CN1CCOC(Cn2cccn2)C1 (stereo not given) | Wolbachia pipientis | 121.8
COCc1cc(C[C@@H]2CC[C@H](O)[C@@H](CN(CC(C)C)CC(C)C)O2)no1 | Wolbachia pipientis | -3.447
CCC(C)(C)C1CCCN1C(=O)c1coc(S(=O)(=O)NC)c1 (stereo not given) | Wolbachia pipientis | 25.9
C1CC(CN2C[C@@H]3C[C@@H](c4nnc(C5CC5)o4)O[C@@H]3C2)C1 | Wolbachia pipientis | 108.7
Cc1nnc(NC(=O)CN2CCOC(Cn3cccn3)C2)s1 (stereo not given) | Wolbachia pipientis | -11.4
COc1ncnc2c1CCN(CC1CCOC1)CC2 (stereo not given) | Wolbachia pipientis | -41.04
CCC(O)CNC(=O)c1cc(COc2ccc(OC)cc2Cl)[nH]n1 (stereo not given) | Wolbachia pipientis | 4.505
Cc1ccccc1CN(C)C(=O)CN1CCOC(Cn2cccn2)C1 (stereo not given) | Wolbachia pipientis | 111
CCCn1ncc(C(=O)N2CCN([C@H]3CCCC[C@@H]3O)CC2)c1C | Wolbachia pipientis | 2.84
CNc1cc2c(nn1)CCN(C(=O)c1ccc3c(c1)CCC3)C2 | Wolbachia pipientis | 114.4
C1CC(CN2C[C@@H]3C[C@@H](c4nnc(C5CC5)o4)O[C@@H]3C2)CCO1 | Wolbachia pipientis | 101.2
Cc1nc(C2CCCN(C(=O)c3ccncc3)C2)c2sccn12 (stereo not given) | Wolbachia pipientis | 112
CNc1cc2c(nn1)CCN(C(=O)c1ccc3c(c1)OCO3)C2 | Wolbachia pipientis | 105.8
Cc1nc(CN2CCCC(N(C)Cc3nc(CC(C)C)no3)C2)no1 (stereo not given) | Wolbachia pipientis | -5.621
